# Assay summary: chemical genetic growth profiling, strain panel (AID 1159580);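 note: tested at 20 µM; growth read once vehicle control cultures reached saturation at 30 °C; 1 = growth at the plate median or of vehicle wells; lower values mean less growth of the strain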
# Recorded conditions: S. cerevisiae deletion strains, growth OD, locus YCL061C, strain MRC1, active compounds read low
Hit rate of the full screen: of about 5,500 compounds, about 2,000 (36%) were called active. Roughly 18% stayed inconclusive and do not appear here. Some of the results follow.
# normalized growth per entry

Q: Fill in the blank: the reported normalized growth of CN1CNc2c(c(=O)n(C)c(=O)n2C)C1 is ____.
A: 0.998 (inactive)

Q: Param item: OC1C(O)C(O)C(O)C(O)C1O (stereo not drawn)
A: 0.996 (inactive)

Q: Param item: CC[C@]12C=CCN3CC[C@@]4(c5ccc(OC)cc5N(C)C4[C@@](O)(C(=O)OC)[C@@H]1OC(C)=O)[C@@H]32 (stereo partly drawn)
A: 1.01 (inactive)

Q: Param item: CC1=C2C(=CO[C@H](C)[C@H]2C)C(=O)C(C(=O)O)=C1O
A: 0.967 (inactive)

Q: Param item: NCCc1ccc(O)c(O)c1
A: 0.987 (inactive)

Q: Param item: CC(=O)Nc1cccc(O)c1
A: 1.01 (inactive)

Q: Param item: O=C(O)c1cc(=O)c2ccccc2o1
A: 0.979 (inactive)

Q: Param item: CCCCC1C(=O)N(c2ccccc2)N(c2ccccc2)C1=O
A: 0.983 (inactive)

***
Q: Fill in the blank: the reported normalized growth of O=c1c2ccccc2oc2ccccc12 is ____.
A: 0.917 (active)

Q: Param item: CCCCCCCCCc1ccc(O)cc1
A: 0.0666 (active)

Q: Param item: CCN1CCN(c2cc3c(cc2F)c(=O)c(C(=O)O)cn3C2CC2)CC1
A: 1.01 (inactive)

Q: Param item: CC1=CCc2c(cc3oc(C)cc(=O)c3c2O)OC1
A: 0.954 (inactive)

Q: Param item: Cc1ccc(COc2ccc(C)nc2[N+](=O)[O-])cc1
A: 0.946 (inactive)

====

# normalized growth per entry
# Assay summary: chemical genetic growth profiling, strain panel (AID 1159580);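 note: tested at 20 µM; growth read once vehicle control cultures reached saturation at 30 °C; 1 = growth at the plate median or of vehicle wells; lower values mean less growth of the strain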
# Recorded conditions: S. cerevisiae deletion strains, growth OD, locus YNL271C, strain bni1, active compounds read low
In all, about 5,500 compounds went through this assay and about 2,000 (36%) were called active. About 18% were inconclusive and are not listed. This is one part of the list.
Answer with a bare number; do not write a unit.

Q: Fill in the blank: the reported normalized growth of Cc1cc(=O)c2c(O)c3c(cc2o1)OCC(C)CC3 (centres undefined) is ____.
A: 0.922

Q: Param item: NCCc1ccc(O)cc1
A: 0.993

Q: Param item: NCCc1ccc(O)c(O)c1
A: 0.991

Q: Param item: CN(C)CC/C=C1/c2ccccc2COc2ccccc21
A: 1.01

Q: Param item: CC(N)Cc1ccc(O)cc1 (centres undefined)
A: 1.02

Q: Param item: CC(=O)CC(c1ccccc1)c1c(O)c2ccccc2oc1=O (centres undefined)
A: 1.01

Q: Param item: O=c1c2ccccc2oc2ccc(O)cc12
A: 0.915

Q: Param item: CNCCC=C1c2ccccc2CCc2ccccc21
A: 1.01

***
Q: Fill in the blank: the reported normalized growth of Cc1cc(=O)c2c(o1)-c1c(cc(O)c(O)c1C(=O)O)OC2 is ____.
A: 1.02

====

# Assay summary: chemical genetic growth profiling, strain panel (AID 1159580);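 note: tested at 20 µM; growth read once vehicle control cultures reached saturation at 30 °C; 1 = growth at the plate median or of vehicle wells; lower values mean less growth of the strain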
# Recorded conditions: S. cerevisiae deletion strains, growth OD, locus YHR200W, strain rpn10, active compounds read low
In all, about 5,500 compounds went through this assay and about 2,000 (36%) were called active. Another 18% or so got no clear call; they are omitted. Some of the results follow.
# normalized growth per entry
Answer with a bare number; do not write a unit.

Q: Fill in the blank: the reported normalized growth of C=C1C2CC[C@@]3(C)[C@H](c4ccoc4)OC(=O)C[C@]13O[C@H]1CC(=O)C(C)(C)[C@H](C(O)C(=O)OC)[C@@]21C (stereo not given in full) is ____.
A: 1.02

Q: Param item: C[C@@H]1CC[C@@]2(OC1)OC1C(O)C3C4CC[C@H]5C[C@H](O[C@@H]6O[C@H](CO)[C@H](O[C@@H]7O[C@H](CO)[C@@H](O)[C@H](O[C@@H]8OC[C@@H](O)[C@H](O)[C@H]8O)[C@H]7O[C@@H]7O[C@H](CO)[C@H](O)[C@H](O[C@@H]8O[C@H](CO)[C@@H](O)[C@H](O)[C@H]8O)[C@H]7O)[C@H](O)[C@H]6O)[C@H](O)C[C@]5(C)C4CC[C@]3(C)C1[C@@H]2C (stereo not given in full)
A: 0.0577

Q: Param item: NS(=O)(=O)c1cc2c(cc1C(F)(F)F)NCNS2(=O)=O
A: 0.988

***
Q: Fill in the blank: the reported normalized growth of CN(C)CCC=C1c2ccccc2C=Cc2ccccc21 is ____.
A: 0.998

Q: Param item: CNCCC=C1c2ccccc2CCc2ccccc21
A: 1.02

Q: Param item: O=C1CC[C@]23C=CC(=O)NCCCCNCCCNC(=O)/C=C/c4ccc(c2c4)O[C@@H]3C1
A: 0.963

Q: Param item: O=c1[nH]c2cc(Cl)c(Cl)cc2[nH]c1=O
A: 1.02

Q: Param item: CC(=O)O[C@H]1C[C@H](O[C@H]2[C@@H](O)C[C@H](O[C@H]3[C@@H](O)C[C@H](O[C@H]4CC[C@@]5(C)C(CCC6C5C[C@@H](O)[C@]5(C)[C@@H](C7=CC(=O)OC7)CC[C@]65O)C4)O[C@@H]3C)O[C@@H]2C)O[C@H](C)[C@H]1O[C@@H]1O[C@H](CO)[C@@H](O)[C@H](O)[C@H]1O (stereo not given in full)
A: 1

Q: Param item: COC(=O)C1=C(C)NC(C)=C(C(=O)OCCN(C)Cc2ccccc2)C1c1cccc([N+](=O)[O-])c1 (stereo not given)
A: 0.989

Q: Param item: C#CCOS(=O)OC1CCCCC1Oc1ccc(C(C)(C)C)cc1 (stereo not given)
A: 0.99
